- TEST SYSTEM: human KV1.3 channels (Homo sapiens, UniProt P22001)
- Construct: homotetramer
- Sequence (P22001 whole entry): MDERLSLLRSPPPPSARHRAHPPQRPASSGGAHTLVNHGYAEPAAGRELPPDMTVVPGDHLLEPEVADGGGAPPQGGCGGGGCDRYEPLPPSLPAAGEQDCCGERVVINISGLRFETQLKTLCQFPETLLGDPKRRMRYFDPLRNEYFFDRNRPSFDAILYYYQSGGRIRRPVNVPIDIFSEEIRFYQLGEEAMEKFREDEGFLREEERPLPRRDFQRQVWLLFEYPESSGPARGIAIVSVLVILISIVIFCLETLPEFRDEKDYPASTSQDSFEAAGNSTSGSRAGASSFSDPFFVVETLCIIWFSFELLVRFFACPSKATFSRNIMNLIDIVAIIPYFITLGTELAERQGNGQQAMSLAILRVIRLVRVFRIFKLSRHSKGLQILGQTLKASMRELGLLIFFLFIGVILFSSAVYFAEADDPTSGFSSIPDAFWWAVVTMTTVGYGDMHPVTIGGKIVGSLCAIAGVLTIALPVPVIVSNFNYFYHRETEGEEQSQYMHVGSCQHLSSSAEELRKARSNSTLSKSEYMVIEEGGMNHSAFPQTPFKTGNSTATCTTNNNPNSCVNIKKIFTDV
- PROCEDURE DETAILS: whole-cell patch clamp, CHO cells
RECORDED METRIC: pIC50
# pIC50: negative log10 of molar concentration; output just the value

Field pIC50 (entry "Cc1ccc(-c2cc(C(F)(F)F)nn2-c2ccc(S(N)(=O)=O)cc2)cc1" ) reads 5.30
